test system: PAK7; conditions: concentration: 1 μM, replicates: in singlicate; n = 1;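 note: KINOMEscan kinase panel screen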
// values below are reported %Inh

| compound | %Inh / % |
| --- | --- |
| Nc1ncc(-c2ccc3nccc(-c4ccncc4)c3c2)cc1S(=O)(=O)N1CCOCC1 | 0 |
| Cn1cc(-c2[nH]c3cc(NC(=O)[C@H](N)C4CCCCC4)cc4c3c2C=NNC4=O)cn1 | 97.9 |
| COCCOCCOc1cc2ncc3c4ccc(C#N)cc4[nH]c3c2cc1OC | 1 |
| O=C(NC1CCN(c2ccnc(Nc3ccc(F)cc3)n2)C1)c1cc2ccccc2s1 (stereo not shown) | 4 |
| FC(F)(F)c1ccc(/C=C/c2cncnc2Nc2ccc3[nH]c(Cc4ccccc4)nc3c2)cc1 | 0 |
| COc1cc(Nc2nccc(N3CCC(NC(=O)Nc4cccc(C(C)=O)c4)C3)n2)cc(OC)c1OC (stereo not shown) | 13 |
| Cc1ccc(F)c(C(=O)Nc2cccc(-c3nn4ccccc4c3-c3ccnc(Nc4cccc(F)c4)n3)c2)c1F | 14 |
| c1ccc(-c2cnc3nccnn23)cc1 | 0 |
| Cc1cccc(Nc2nc(N[C@H]3CCNC3)ncc2C(N)=O)c1.Cl | 98 |
| Cc1ccc(C)c(NC(=O)NC2CCN(c3ccnc(Nc4ccc(F)cc4)n3)C2)c1 (stereo not shown) | 0 |
| Cc1cccc(NC(=O)Nc2ccc(Oc3ncnc4ccn(C)c34)cc2)c1 | 0 |
| NCCCC(NC(=O)c1cc(Br)c(-c2ccnc3[nH]ccc23)s1)c1ccccc1.O=C(O)C(F)(F)F.O=C(O)C(F)(F)F (stereo not shown) | 29 |
| Cc1ccc(S(=O)(=O)Nc2ccc(Nc3nccc(Nc4cccc5[nH]ncc45)n3)cc2)cc1 | 0 |
| Cl.Cl.NCC(NCc1ccc(-c2ccnc3[nH]ccc23)s1)c1ccccc1 (stereo not shown) | 0 |
| CC(=O)Nc1nc2cnc(Nc3cc(NC(=O)c4cccc(C5(C#N)CC5)c4Cl)ccc3C)nc2s1 | 9 |
| Cl.c1ccc(-c2ccc3c(Nc4ccc5[nH]ccc5c4)ccnc3c2)nc1 | 0 |
| c1ccc(Oc2ccc(Nc3ccnc4cc(-c5ccc(CNCCN6CCOCC6)o5)ccc34)cc2)nc1 | 0 |
| COc1cccc(C2=C(Nc3ccc(Cl)c(C(=O)O)c3)C(=O)NC2=O)c1 | 1 |
| CN1CCN(Cc2cccc(-c3ccc4c(Nc5ccc(Oc6ccccc6)cc5)ccnc4c3)c2)CC1 | 0 |
| Cc1ccc(C(=O)Nc2ccc(Nc3ccnc4cc(-c5nccs5)ccc34)cc2O)cc1.Cl | 0 |
| O=C(Nc1cccc(Oc2ccc3nc(NC(=O)C4CC4)cn3n2)c1)c1ccccc1C(F)(F)F | 0 |
| c1ccc(-c2n[nH]cc2Nc2ccnc3ccccc23)nc1 | 2 |
| O=C(Nc1cccc(-c2nn3ccccc3c2-c2ccnc(Nc3cccc(F)c3)n2)c1)c1c(F)ccc(F)c1Cl | 15 |
| C[C@@H](Oc1cc(-n2cnc3cc(-c4ccnc(NCCS(C)(=O)=O)c4)ccc32)sc1C(N)=O)c1ccccc1Cl | 0 |
| COC(=O)Nc1nc2ccc(Oc3ccc(NC(=O)Nc4cc(C(F)(F)F)ccc4F)cc3)cc2n1C.Cl | 0 |
| Cl.Cl.NCC(C(=O)Nc1cc(Br)c(-c2ccnc3[nH]ccc23)s1)c1ccccc1 (stereo not shown) | 51 |
| COc1cc2c(cc1OCCN1CCNCC1)ncc1c3ccc(C#N)cc3[nH]c21 | 0 |
| CCn1c(-c2nonc2N)nc2c(C#CC(C)(C)O)ncc(OCCCCN)c21.O=C(O)C(F)(F)F.O=C(O)C(F)(F)F | 99 |
| CN(C)S(=O)(=O)c1cc(-c2ccc3nccc(-c4cccc(S(N)(=O)=O)c4)c3c2)cnc1N | 0 |
| CN1CCN(CCCNc2nccc(-c3c(-c4ccc(F)cc4)nn4cc(C(F)(F)F)ccc34)n2)CC1 | 0 |
| COc1ccc(Nc2nccc(N3CCC(NC(=O)Nc4cccc(OC)c4)C3)n2)cc1 (stereo not shown) | 0 |
| Nc1n[nH]c2cnc(-c3ccccc3)cc12 | 6 |
| CCn1c(-c2nonc2N)nc2c(C#CC(C)(C)O)nc(OC[C@H](N)c3ccccc3)cc21 | 98 |
| Nc1ncnc2c1nc(-c1ccccc1)n2-c1ccccc1 | 0 |
